What z-score was measured for each of the following?
- run description: JC-1 mitochondrial signal, unstimulated adipocytes – cell-based, JC-1 fluorescence, 3T3-L1 adipocytes, 24 h, 100 nL compound, profiling panel (AID 1168); further: test concentration not given here
- protocol conditions: JC-1 mitochondrial fluorescence, higher = more signal, called active from +8 up or from −8 down
Active and inactive are the calls of the source.

Asked: State its z-score: CC[C@@H]1C=C(C(=O)O)[C@H](c2ccc(C)cc2)N1S(=O)(=O)c1ccc(C)cc1
Given back: 0.348 (inactive)

Asked: State its z-score: [N-]=[N+]=Nc1ccccc1[C@H]1OC(c2ccc(OCCCO)cc2)=N[C@@]1(CCS(=O)(=O)c1ccccc1)C(=O)NCc1ccccc1
Given back: -0.327 (inactive)

Asked: State its z-score: COCC(=C=CC[C@H](O)c1cccc(OCCO)c1)CCO
Given back: 0.244 (inactive)

Asked: State its z-score: [N-]=[N+]=NCc1ccccc1[C@@H]1OC(c2ccc(OCCCO)cc2)=N[C@]1(CCS(=O)(=O)c1ccccc1)C(=O)N1CCCCC1
Given back: -0.159 (inactive)

Asked: State its z-score: C=CCN1C(=O)[C@]2(O[C@H](CCO)[C@@H]([Si](C)(C)c3ccc(OC)cc3)[C@@H]2C)c2cc(N(C=O)c3ccccc3)ccc21
Given back: -0.422 (inactive)

Asked: State its z-score: CCCCC(=C=CC[C@@H](O)c1ccc(CO)o1)CCO
Given back: 0.618 (inactive)

Asked: State its z-score: C=C(CCCC)/C(=C/C[C@@H](OC(C)=O)c1ccccc1OCCO)c1cc(C(=O)OC)ccc1OC
Given back: 0.478 (inactive)

Asked: State its z-score: CN(C)CCCCNC(=O)[C@@H]1C[C@@H]2C(=O)N[C@@H](CCCCN)C(=O)N2[C@@H]1c1ccc(O)cc1
Given back: 0.627 (inactive)

====

- run description: viability profiling in MM1S myeloma cells – cell-based, resazurin fluorescence, basal, 24 h, PK04 Diversity Set, profiling panel (AID 1174);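 further: MM1S multiple myeloma cell line; test concentration not given here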
- protocol conditions: higher = more signal, called active from +8 up or from −8 down
The source made the active and inactive calls.
What z-score was measured for each of the following?

Asked: State its z-score: COc1ccc([Si](C)(C)[C@@H]2[C@@H](CC(=O)N3CCC[C@H]3CO)O[C@]3(C(=O)N(Cc4cccc(I)c4)c4ccccc43)[C@H]2C)cc1
Given back: -3.49 (inactive)

Asked: State its z-score: C#CCNCc1ccccc1
Given back: 0.642 (inactive)

Asked: State its z-score: C=CCOC(=O)[C@H]1[C@@H]2C(=O)O[C@@H](c3ccccc3)[C@@H](c3ccccc3)N2[C@@H](c2ccc(OCCOC(=O)[C@H]3C[C@H]4C(=O)N[C@@H](CCCCN(C)C)C(=O)N4[C@H]3c3cccc(OCCO)c3)cc2)[C@]12C(=O)Nc1ccc(I)cc12
Given back: -0.865 (inactive)

====

- run description: inhibition of PAO1 biofilm formation – strain PAO1, LB-PBS medium, absorbance 600 nm, primary screen (AID 1176); further: test concentration not given here
- protocol conditions: P. aeruginosa PAO1 growth/biofilm, A600, 12 h; higher = more signal
Active and inactive are the calls of the source. The rule behind the calls is not given here.
What z-score was measured for each of the following?

Asked: State its z-score: CO[C@H]1O[C@H](CO)[C@@H](OC(=O)Nc2ccc(Br)cc2)[C@@H]2OC(=O)[C@H](Cc3cccc(Br)c3)C/C=C/C[C@@H](Cc3cccc(Br)c3)C(=O)O[C@@H]12
Given back: 0.594 (inactive)

Asked: State its z-score: O=C1C2C=CC(C(O)C=Cc3ccc([N+](=O)[O-])cc3)N(n3cnnc3)C2C(=O)N1Cc1ccccc1 (stereo not given)
Given back: 0.601 (inactive)

Asked: State its z-score: O=C1O[C@H](c2ccccc2)[C@H](c2ccccc2)N2[C@H]1[C@@H](C(=O)N1CCN(c3ncccn3)CC1)[C@]1(C(=O)Nc3ccc(C#CC4=CCCCC4)cc31)[C@H]2c1ccccc1OCCO
Given back: 1.78 (inactive)

Asked: State its z-score: NCCCCCCNC(=O)[C@H]1C[C@H]2C(=O)N[C@@H](Cc3ccccc3)C(=O)N2[C@H]1c1cccc(OCCO)c1
Given back: -0.627 (inactive)

Asked: State its z-score: COC(=O)C(CC#Cc1ccc2c(c1)[C@]1(C(=O)N2)[C@H](c2ccccc2OCCO)N2[C@H](c3ccccc3)[C@H](c3ccccc3)OC(=O)[C@H]2[C@@H]1C(N)=O)C(=O)OC
Given back: 1.18 (inactive)

Asked: State its z-score: CN1C(=O)C2C=CC(C(O)c3ccc(F)cc3)N(N(c3ccccc3)c3ccccc3)C2C1=O (stereo not given)
Given back: 1.14 (inactive)

Asked: State its z-score: COc1ccc(C(O)C2C=CC3C(=O)N(C)C(=O)C3N2NC(=O)OC(C)(C)C)c2ccccc12 (stereo not given)
Given back: 0.503 (inactive)

Asked: State its z-score: O=C1C2C=CC(C(O)c3ccc(F)cc3)N(Nc3ccc([N+](=O)[O-])cc3)C2C(=O)N1c1ccccc1 (stereo not given)
Given back: 0.862 (inactive)

Asked: State its z-score: C=C(CCCC)/C(=C/C[C@H](OC(C)=O)c1ccc(OCCO)cc1)c1cnc2ccccc2c1
Given back: 0.403 (inactive)

Asked: State its z-score: CC(c1ccccc1)C(O)C1C=CC2C(=O)N(c3ccccc3)C(=O)C2N1Nc1ccccc1 (stereo not given)
Given back: 0.67 (inactive)

Asked: State its z-score: COCCOC(=O)N1C(=O)[C@@]2(c3cc(C#CC4(O)CCCCCC4)ccc31)[C@H](c1ccccc1OCCO)N1[C@H](c3ccccc3)[C@H](c3ccccc3)OC(=O)[C@H]1[C@@H]2C(=O)N1CCc2cc(OC)c(OC)cc2C1
Given back: 2.26 (inactive)

Asked: State its z-score: CC1CC/C=C\[C@H]2OC34C=CCN(c5ccc6ccccc6c5)C(=O)[C@H]3N(CCO)C(=O)[C@@H]4C2C(=O)O1 (stereo not given in full)
Given back: 0.826 (inactive)

Asked: State its z-score: O=C1[C@H]2C=C(Br)[C@H](C[C@@H]2OCCCCCCO)[C@@]12CO2
Given back: 0.756 (inactive)

Asked: State its z-score: CC(=CC1CCCCC1)[C@@H](NC(=O)c1cccnc1)c1ccc(-c2ccccc2)cc1
Given back: 1.93 (inactive)

Asked: State its z-score: CCCCCCCCCCC(O)C1C=CC2C(=O)NC(=O)C2N1Nc1ccc(Cl)cc1Cl (stereo not given)
Given back: 0.201 (inactive)
